# system_under_test: Pim-2 (Homo sapiens)
# Construct: His6-labelled recombinant full-length human Pim-1, Pim-2 or Pim-3 protein; His6; made in house
# Sequence (Q9P1W9 whole entry): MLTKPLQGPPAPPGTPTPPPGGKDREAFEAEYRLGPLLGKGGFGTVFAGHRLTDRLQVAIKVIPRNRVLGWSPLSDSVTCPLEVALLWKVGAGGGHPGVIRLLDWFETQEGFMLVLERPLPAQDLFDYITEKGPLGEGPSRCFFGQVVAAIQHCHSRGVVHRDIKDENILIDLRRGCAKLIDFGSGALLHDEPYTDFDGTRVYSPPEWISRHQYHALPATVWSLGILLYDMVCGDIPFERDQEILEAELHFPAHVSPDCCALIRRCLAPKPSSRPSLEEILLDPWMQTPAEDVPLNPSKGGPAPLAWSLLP
# assay_overview: TR-FRET assay, Pim-2 kinase (phosphorylation of Bad Ser112)
# Format: biochemical
# conditions_used: TR-FRET; ATP 40 μM; read-out: IC50 Pim2
pIC50: −log10 of the molar value.
endpoint: pIC50

I would be grateful if you could share the reported pIC50 for "CN(C)CCCOc1ccc(-c2cnc3[nH]c4cnc(-c5cccnc5)cc4c3c2)cc1" .
6.00 to 7.00

I would be grateful if you could share the reported pIC50 for "O=C(O)c1cc2c(cn1)[nH]c1ncccc12" .
< 5.30

I would be grateful if you could share the reported pIC50 for "O=S(=O)(CCl)Nc1ccc(-c2c(F)cnc3[nH]c4cnc(-c5cccnc5)cc4c23)cc1" .
5.30 to 6.00

I would be grateful if you could share the reported pIC50 for "CN(C)CCCOc1ccc(-c2c(F)cnc3[nH]c4cnc(-c5cccnc5)cc4c23)cc1" .
6.00 to 7.00

I would be grateful if you could share the reported pIC50 for "Fc1cnc2[nH]c3cnc(-c4cccnc4)cc3c2c1N1CCC(N2CCCC2)CC1" .
5.30 to 6.00

I would be grateful if you could share the reported pIC50 for "Ic1cnc2[nH]c3cnc(-c4cccnc4)cc3c2c1" .
5.30 to 6.00

I would be grateful if you could share the reported pIC50 for "Fc1cnc2[nH]c3cnc(-c4cccnc4)cc3c2c1N1CCC(N2CCOCC2)CC1" .
< 5.30

I would be grateful if you could share the reported pIC50 for "CS(=O)(=O)NCc1ccc(-c2c(F)cnc3[nH]c4cnc(-c5cccnc5)cc4c23)cc1" .
6.00 to 7.00

I would be grateful if you could share the reported pIC50 for "CCN(CC)CCCn1cc(-c2cc3c(cn2)[nH]c2ncc(OC)cc23)cn1" .
< 5.30

I would be grateful if you could share the reported pIC50 for "c1cncc(-c2cc3c(cn2)[nH]c2ncccc23)c1" .
5.30 to 6.00

I would be grateful if you could share the reported pIC50 for "CN1CCC(N2CCN(c3c(F)cnc4[nH]c5cnc(-c6cccnc6)cc5c34)CC2)CC1" .
< 5.30

I would be grateful if you could share the reported pIC50 for "CN1CCN(C2CCN(c3c(F)cnc4[nH]c5cnc(-c6cccnc6)cc5c34)CC2)CC1" .
5.30 to 6.00

I would be grateful if you could share the reported pIC50 for "CC(C)(CO)COC(=O)c1cnc2[nH]c3cnc(-c4cccnc4)cc3c2c1" .
6.00 to 7.00

I would be grateful if you could share the reported pIC50 for CC(COc1ccc(-c2c(F)cnc3[nH]c4cnc(-c5cccnc5)cc4c23)cc1)CN(C)C (centres unmarked) .
7.00 to 9.00

I would be grateful if you could share the reported pIC50 for "COc1cnc2[nH]c3cnc(-c4cnn(C)c4)cc3c2c1" .
6.00 to 7.00

I would be grateful if you could share the reported pIC50 for "CN1CCN(c2ccc(-c3cnc4[nH]c5cnc(-c6cccnc6)cc5c4c3)cc2)CC1" .
6.00 to 7.00

I would be grateful if you could share the reported pIC50 for "CN(C)C1CCN(c2c(F)cnc3[nH]c4cnc(-c5cccnc5)cc4c23)CC1" .
5.30 to 6.00

I would be grateful if you could share the reported pIC50 for "COc1ccc(-c2c(F)cnc3[nH]c4cnc(-c5cccnc5)cc4c23)cn1" .
< 5.30

I would be grateful if you could share the reported pIC50 for "COc1cnc2[nH]c3cnc(-c4cnn(CCCCCN)c4)cc3c2c1" .
< 5.30

I would be grateful if you could share the reported pIC50 for "CCCN(C)c1cnc2[nH]c3cnc(-c4cccnc4)cc3c2c1" .
5.30 to 6.00

I would be grateful if you could share the reported pIC50 for "CCN(CC)CCn1cc(-c2cnc3[nH]c4cnc(-c5cccnc5)cc4c3c2)cn1" .
6.00 to 7.00

I would be grateful if you could share the reported pIC50 for "c1cncc(-c2cc3c(cn2)[nH]c2ncc(-c4cnn(CCN5CCOCC5)c4)cc23)c1" .
5.30 to 6.00

I would be grateful if you could share the reported pIC50 for "CCOc1cnc2[nH]c3cnc(-c4cccnc4)cc3c2c1" .
6.00 to 7.00

I would be grateful if you could share the reported pIC50 for "Nc1ccc(-c2c(F)cnc3[nH]c4cnc(-c5cccnc5)cc4c23)cn1" .
5.30 to 6.00

I would be grateful if you could share the reported pIC50 for "O=C(O)CCC(=O)Nc1cccc(-c2c(F)cnc3[nH]c4cnc(-c5cccnc5)cc4c23)c1" .
< 5.30

I would be grateful if you could share the reported pIC50 for "CCOc1ncccc1-c1c(F)cnc2[nH]c3cnc(-c4cccnc4)cc3c12" .
< 5.30

I would be grateful if you could share the reported pIC50 for "CCCN(C)C(=O)c1cnc2[nH]c3cnc(-c4cccnc4)cc3c2c1" .
5.30 to 6.00

I would be grateful if you could share the reported pIC50 for "Cc1cc(N2CCNCC2)ncc1-c1cnc2[nH]c3cnc(-c4cccnc4)cc3c2c1" .
6.00 to 7.00

I would be grateful if you could share the reported pIC50 for "NCCCOc1ccc(-c2cnc3[nH]c4cnc(-c5cccnc5)cc4c3c2)cc1" .
6.00 to 7.00

I would be grateful if you could share the reported pIC50 for "COc1cncc(-c2cc3c(cn2)[nH]c2ncc(F)cc23)c1" .
< 5.30

I would be grateful if you could share the reported pIC50 for "CSc1cncc(-c2cc3c(cn2)[nH]c2ncc(F)cc23)c1" .
< 5.30

I would be grateful if you could share the reported pIC50 for "c1cncc(-c2cc3c(cn2)[nH]c2ncc(-c4ccc(N5CCOCC5)cc4)cc23)c1" .
5.30 to 6.00

I would be grateful if you could share the reported pIC50 for "Oc1ccc(-c2c(F)cnc3[nH]c4cnc(-c5cccnc5)cc4c23)cc1" .
6.00 to 7.00

I would be grateful if you could share the reported pIC50 for "FC(F)(F)COc1cnc2[nH]c3cnc(-c4cccnc4)cc3c2c1" .
5.30 to 6.00

I would be grateful if you could share the reported pIC50 for "Cc1n[nH]c(C)c1-c1cnc2[nH]c3cnc(-c4cccnc4)cc3c2c1" .
< 5.30

----------
# system_under_test: Pim-3 (Homo sapiens, UniProt Q86V86)
# Construct: His6-labelled recombinant full-length human Pim-1, Pim-2 or Pim-3 protein; His6; made in house
# assay_overview: TR-FRET assay, Pim-3 kinase (phosphorylation of Bad Ser112)
# Type: biochemical
# conditions_used: TR-FRET; ATP 40 μM; read-out: IC50 Pim3
pIC50: −log10 of the molar value.
I'd be grateful if you could share measured pIC50 for these entries.

Notebook entry, Pim-3 (Homo sapiens, UniProt Q86V86) assay: pIC50 of CC(C)(CO)COC(=O)c1cnc2[nH]c3cnc(-c4cccnc4)cc3c2c1 [Example 15] = ?
7.00 to 9.00

Notebook entry, Pim-3 (Homo sapiens, UniProt Q86V86) assay: pIC50 of CS(=O)(=O)Nc1ccccc1-c1c(F)cnc2[nH]c3cnc(-c4cccnc4)cc3c12 [Example 70] = ?
< 5.30

Notebook entry, Pim-3 (Homo sapiens, UniProt Q86V86) assay: pIC50 of COc1cnc2[nH]c3cnc(-c4cnn(CCCCCNC(=O)OC(C)(C)C)c4)cc3c2c1 [Example 167] = ?
6.00 to 7.00

Notebook entry, Pim-3 (Homo sapiens, UniProt Q86V86) assay: pIC50 of O=C(c1c(F)cnc2[nH]c3cnc(-c4cccnc4)cc3c12)N1CCOCC1 [Example 36] = ?
5.30 to 6.00

Notebook entry, Pim-3 (Homo sapiens, UniProt Q86V86) assay: pIC50 of CS(=O)(=O)NCc1ccc(-c2c(F)cnc3[nH]c4cnc(-c5cccnc5)cc4c23)cc1 [Example 66] = ?
7.00 to 9.00

Notebook entry, Pim-3 (Homo sapiens, UniProt Q86V86) assay: pIC50 of CN1CCN(c2cccc(-c3cnc4[nH]c5cnc(-c6cccnc6)cc5c4c3)c2)CC1 [Example 139] = ?
7.00 to 9.00

Notebook entry, Pim-3 (Homo sapiens, UniProt Q86V86) assay: pIC50 of c1cnc2[nH]c3cnc(-c4ccoc4)cc3c2c1 [Example 40] = ?
5.30 to 6.00

Notebook entry, Pim-3 (Homo sapiens, UniProt Q86V86) assay: pIC50 of COc1cnc2[nH]c3cnc(-c4cnn(CC(=O)NCCN(C)C)c4)cc3c2c1 [Example 165] = ?
6.00 to 7.00

Notebook entry, Pim-3 (Homo sapiens, UniProt Q86V86) assay: pIC50 of COc1cc(-c2c(F)cnc3[nH]c4cnc(-c5cccnc5)cc4c23)ccc1NS(C)(=O)=O [Example 47] = ?
7.00 to 9.00

Notebook entry, Pim-3 (Homo sapiens, UniProt Q86V86) assay: pIC50 of CC(=O)N1CCN(c2ccc(-c3cnc4[nH]c5cnc(-c6cccnc6)cc5c4c3)cc2)CC1 [Example 137] = ?
7.00 to 9.00

Notebook entry, Pim-3 (Homo sapiens, UniProt Q86V86) assay: pIC50 of CN(C)CCOc1ccc(-c2c(F)cnc3[nH]c4cnc(-c5cccnc5)cc4c23)cc1 [Example 96] = ?
7.00 to 9.00

Notebook entry, Pim-3 (Homo sapiens, UniProt Q86V86) assay: pIC50 of C=CCn1cc(-c2cc3c(cn2)[nH]c2nccc(-c4ccc(C(=O)OC)cc4)c23)cn1 [Example 170] = ?
6.00 to 7.00

Notebook entry, Pim-3 (Homo sapiens, UniProt Q86V86) assay: pIC50 of CN(C)CCCN(c1ccc(-c2c(F)cnc3[nH]c4cnc(-c5cccnc5)cc4c23)cc1)S(C)(=O)=O [Example 49] = ?
7.00 to 9.00

Notebook entry, Pim-3 (Homo sapiens, UniProt Q86V86) assay: pIC50 of CN(C)C1CCN(c2c(F)cnc3[nH]c4cnc(-c5cccnc5)cc4c23)CC1 [Example 84] = ?
6.00 to 7.00

Notebook entry, Pim-3 (Homo sapiens, UniProt Q86V86) assay: pIC50 of Fc1cnc2[nH]c3cnc(-c4cccnc4)cc3c2c1-c1cccnc1 [Example 69] = ?
6.00 to 7.00

Notebook entry, Pim-3 (Homo sapiens, UniProt Q86V86) assay: pIC50 of Cc1cscc1-c1c(F)cnc2[nH]c3cnc(-c4cccnc4)cc3c12 [Example 57] = ?
6.00 to 7.00

Notebook entry, Pim-3 (Homo sapiens, UniProt Q86V86) assay: pIC50 of CCN(CC)CCn1cc(-c2cnc3[nH]c4cnc(-c5cccnc5)cc4c3c2)cn1 [Example 123] = ?
7.00 to 9.00

Measured values drawn from patent US20110178053A1 for this set.
